Attribution: patent US9994566B2

- SYSTEM: HIF Prolyl hydroxylases 2 (PHD2) (Homo sapiens, UniProt Q9GZT9)
- Sequence (Q9GZT9 whole entry, species assumed): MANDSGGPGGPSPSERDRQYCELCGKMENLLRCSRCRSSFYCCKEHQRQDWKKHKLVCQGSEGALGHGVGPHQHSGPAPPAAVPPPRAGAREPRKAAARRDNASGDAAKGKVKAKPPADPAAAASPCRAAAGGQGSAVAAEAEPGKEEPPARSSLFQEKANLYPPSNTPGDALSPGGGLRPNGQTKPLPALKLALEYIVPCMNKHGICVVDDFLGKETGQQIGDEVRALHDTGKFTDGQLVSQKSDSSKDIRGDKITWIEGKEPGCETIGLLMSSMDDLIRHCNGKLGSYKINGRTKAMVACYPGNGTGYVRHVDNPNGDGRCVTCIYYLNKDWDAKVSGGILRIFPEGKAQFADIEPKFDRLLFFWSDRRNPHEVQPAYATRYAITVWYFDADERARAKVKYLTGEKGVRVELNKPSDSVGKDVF
- METHOD_DESCRIPTION: PHD2 inhibition, fluorescence polarization (FP) detection of HIF-1α / VBC complex interaction
- TEST_PARAMETERS: PHD2 0.5 μg/μl, FAM-HIF (556-575) 1 μM, 30 minutes room temperature
VALUE_KIND: pIC50
Kindly note that pIC50 refers to -log10 of the concentration in mol/L and answer with the value alone.

Illustrative cases are given below, each with its answer.
O=C(O)CNC(=O)c1ncc2nc(-c3ccc(C(F)(F)F)cc3)ccc2c1O: 5.28
O=C(O)CNC(=O)c1ncc2nc(-c3cccc(Cl)c3)ccc2c1O: 6.39
O=C(O)CNC(=O)c1ncc2nc(-c3cccc4ccccc34)ccc2c1O: 5.00
Cc1nc(C(=O)NCC(=O)O)c(O)c2ccc(-c3cccc(Br)c3)nc12: 5.39

Consider the additional compound presented here.
q: If you can, please state the reported pIC50 value of O=C(O)CNC(=O)c1ncc2nc(-c3cccc(Br)c3)ccc2c1O .
a: 6.39
